FYI, the data here is from the MegaScale stability set (Tsuboyama et al. 2023).

B1: HHH_rd2_0155 (parent)
chain: PPDDERKKAEKAARSGNEEKAREILERLGYSEDEARELAKRLR

Variants of: B1
Assay: folding stability dG (cDNA display proteolysis); higher = more stable
Conditions: PBS, room temperature
outcome measure: folding stability dG (kcal/mol)
Enter your answer as a number in kcal/mol; do not include the unit.

Given the entry PLDDERKKAEKAARSGNEEKAREILERLGYSEDEARELAKRLR , report its measured folding stability dG.
2.14

Return reported folding stability dG; argument: PPDDERKKAEKAARSGNEEKAREIIERLGYSEDEARELAKRLR
0.435

So what's the measured folding stability dG for this one? PPDDERKKAEKAARSGNEHKAREILERLGYSEDEARELAKRLR
1.7

Look up folding stability dG for this variant: PPDDERKKAEKAARSGNEEKAREILKRLGYSEDEARELAKRLR
2.41

Consider the variant PPDDERKKAEGAARSGNEEKAREILERLGYSEDEARELAKRLR and give its measured folding stability dG.
1.39

folding stability dG for PPDDERKKAEKAARSGNEEKAREILEREGYSEDEARELAKRLR ?
0.577

Report folding stability dG for PPDDERKKAEKAARSGNEEKQREILERLGYSEDEARELAKRLR please.
0.924

Request the reported folding stability dG associated with PPDDERKKAEKAARSGNEEKAREILEDLGYSEDEARELAKRLR
0.997

# get_value(readout='folding stability dG', item= PGDDERKKAEKAARSGNEEKAREILERLGYSEDEARELAKRLR )
2.04

Value lookup for folding stability dG; key = PPDDERKKAEKAKRSGNEEKAREILERLGYSEDEARELAKRLR
0.841

Which folding stability dG is listed for PPDVERKKAEKAARSGNEEKAREILERLGYSEDEARELAKRLR ?
2.06

Requested field: folding stability dG. Item: PPDDERKKAEKAARSGLEEKAREILERLGYSEDEARELAKRLR
1.65

Look at this variant and give its reported folding stability dG. PPDDERKKPEKAARSGNEEKAREILERLGYSEDEARELAKRLR
1.13

If you can, please state the reported folding stability dG value of PPDDERKKAEKAARSGNEEKARGILERLGYSEDEARELAKRLR .
1.4

Looking for the measured folding stability dG of PPDDERKKAEKAARSGNEEKAREILERLGYSEDEARELAKRLN , can you help?
1.44

Value lookup for folding stability dG; key = PPDDERKKAEKAARSGNEEKAREMLERLGYSEDEARELAKRLR
1.43

Any idea what its folding stability dG is? The variant is PPDDERKKAEKAARSGNEEKAREILERLGYSEDEARELAKRLW
2.31

What value of measured folding stability dG is listed for PPDDERKKAEKAARSGNEEKAREILERLGYSEDEAHELAKRLR ?
1.17

Would you mind telling me what folding stability dG value was observed for PPDDERKKAEKAARSGNEEGAREILERLGYSEDEARELAKRLR ?
1.66

Entry PPDDERKKAEKAARSGNEEKAREILERLGYSHDEARELAKRLR : reported folding stability dG = ?
1.97

Item under review: PPDDERKKAEKAARSGNEEKAREILERLGYSEDEAGELAKRLR . Reported folding stability dG?
0.823

Give the measured folding stability dG of PPDDERKKAEKAARSGNEEKAREILERLGYSEDEARELAKRIR .
1.57

So what does the record say about folding stability dG for PPDDPRKKAEKAARSGNEEKAREILERLGYSEDEARELAKRLR ?
1.8

Suppose we examine the variant PPDDERKKAEKAARSGNEEKAREILERLGYSRDEARELAKRLR ; what folding stability dG value has been reported?
1.96

Give the measured folding stability dG of PPDDERKIAEKAARSGNEEKAREILERLGYSEDEARELAKRLR .
1.84

Look up folding stability dG for this variant: PPDDETKKAEKAARSGNEEKAREILERLGYSEDEARELAKRLR
1.54

Which folding stability dG value is on record for PPDDERKKAEKAARSGNEEKAREILERLGVSEDEARELAKRLR ?
0.808

# lookup: folding stability dG of PPDDERKKAEKAARMGNEEKAREILERLGYSEDEARELAKRLR
2.26

If you can, please state the reported folding stability dG value of PPDDDRKKAEKAARSGNEEKAREILERLGYSEDEARELAKRLR .
2.01

Please look up its folding stability dG: PPDDERRKAEKAARSGNEEKAREILERLGYSEDEARELAKRLR
2.25

Bench note: what folding stability dG did PYDDERKKAEKAARSGNEEKAREILERLGYSEDEARELAKRLR show?
2.29

// folding stability dG lookup, key: PPDKERKKAEKAARSGNEEKAREILERLGYSEDEARELAKRLR
1.95

# lookup: folding stability dG of PPDDERKKAEKAARSGNEEKAREILERLGYSEDEARELAKRKR
0.832

Entry PPDDERKKAEKQARSGNEEKAREILERLGYSEDEARELAKRLR has what folding stability dG?
1.69

Given PPDDERKKAEKAARSGNEEKAREILERLGYSEDEARELATRLR , state its recorded folding stability dG.
1.63

So what's the measured folding stability dG for this one? PPDDERKKAEKAARSGNEEKAREILERLGTSEDEARELAKRLR
0.175

// lookup folding stability dG for PPDDERKKAEKAARSGNEEKAREILERCGYSEDEARELAKRLR
1.85

Return reported folding stability dG; argument: PPDPERKKAEKAARSGNEEKAREILERLGYSEDEARELAKRLR
1.88

folding stability dG for PPDDERKKAEKAARSGNEEKAREILERLGYNEDEARELAKRLR ?
1.66

Name the recorded folding stability dG for PPDDERKKAEKAARSGNEEKAREILERLGYLEDEARELAKRLR .
0.779

Value lookup for folding stability dG; key = PPDDERKKAEKAARSGNEEKAREILERLGYSEDVARELAKRLR
1.39

Reported folding stability dG, variant PPDDERKKAEKAARSGNEEKAREILERHGYSEDEARELAKRLR : ____
0.699

# input variant: PPDDERKKAEKAARSGNEEKAREIHERLGYSEDEARELAKRLR ; wanted: its folding stability dG
-0.026

Param item = PPDDERKKAEKAARSGNEEKAREILERLGYSEDEANELAKRLR ; retrieve measured folding stability dG.
1.14

May I ask what folding stability dG has been recorded for PPDDERKKAEKAARSKNEEKAREILERLGYSEDEARELAKRLR ?
1.22

# query: folding stability dG of entry PPDDERKKAEKAARSGNEEKARYILERLGYSEDEARELAKRLR
1.68
